# switch fluorescence ratio per entry
test system: ATP; experiment: switch fluorescence ratio, 500 uM ATP over buffer (Cy3 cluster intensity, sum of 5 cycles each) (fold (ratio)); higher = stronger signal-on switching upon ATP binding; sequences stand for … in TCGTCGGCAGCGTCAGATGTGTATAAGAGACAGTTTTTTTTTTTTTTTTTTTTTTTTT…TC; details: aptamer strand: ATP DNA aptamer (quencher-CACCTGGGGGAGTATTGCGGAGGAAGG + anchor), 100 nM annealed; ATP concentration: 500 uM;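 also: ATP exposure 15 min at 22 °C before imaging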
Could you respond with only the numeric value?

Solved cases (6 shown):
Residues: CGGGAGGTCG
Obs value: 1.05
--
Residues: TTCAGAAGCC
Obs value: 1.12
--
Residues: GGGATAAGGT
Obs value: 0.979
--
Residues: GTTGGTGGTG
Obs value: 0.972
--
Residues: AACATTTTTT
Obs value: 0.99
--
Residues: ATTTTTCGAT
Obs value: 1

Now for another entry.
Item `GGCATAGTTT` has what recorded switch fluorescence ratio?
0.969

Each recorded value in this set is attributed to the supplement of paper PMC10126150.
